Target: T1, EsCas13d, nuclease-dead (Eubacterium siraeum, UniProt B0MS50, R295A;H300A;R849A;H854A)
T1 sequence: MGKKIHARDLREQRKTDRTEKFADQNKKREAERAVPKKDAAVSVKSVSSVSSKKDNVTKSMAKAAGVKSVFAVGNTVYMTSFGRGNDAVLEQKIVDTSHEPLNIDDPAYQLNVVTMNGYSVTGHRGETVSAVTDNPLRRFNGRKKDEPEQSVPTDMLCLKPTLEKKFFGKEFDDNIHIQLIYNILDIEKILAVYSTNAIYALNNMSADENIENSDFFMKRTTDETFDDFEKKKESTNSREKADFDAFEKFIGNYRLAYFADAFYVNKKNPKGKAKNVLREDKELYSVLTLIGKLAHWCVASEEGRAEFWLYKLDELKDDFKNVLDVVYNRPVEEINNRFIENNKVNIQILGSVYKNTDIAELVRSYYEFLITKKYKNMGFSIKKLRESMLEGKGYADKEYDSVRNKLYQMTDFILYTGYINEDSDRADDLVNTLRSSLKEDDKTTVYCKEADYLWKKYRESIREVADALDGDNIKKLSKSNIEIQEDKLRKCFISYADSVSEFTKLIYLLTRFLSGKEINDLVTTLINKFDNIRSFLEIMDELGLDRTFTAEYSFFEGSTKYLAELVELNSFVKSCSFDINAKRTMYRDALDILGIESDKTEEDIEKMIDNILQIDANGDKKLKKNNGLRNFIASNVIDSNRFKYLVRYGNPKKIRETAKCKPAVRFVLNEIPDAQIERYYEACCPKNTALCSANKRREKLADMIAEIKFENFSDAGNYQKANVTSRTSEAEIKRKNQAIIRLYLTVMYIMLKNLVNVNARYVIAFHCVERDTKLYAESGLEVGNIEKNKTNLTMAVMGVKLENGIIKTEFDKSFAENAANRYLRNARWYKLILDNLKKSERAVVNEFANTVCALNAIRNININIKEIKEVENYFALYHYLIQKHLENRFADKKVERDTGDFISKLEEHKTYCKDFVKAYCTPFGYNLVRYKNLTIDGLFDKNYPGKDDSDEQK
Experiment: crRNA (strand 1, pre-loaded); Mg2+; 40 mM Tris-HCl pH 7.5, 150 mM NaCl, 6 mM MgCl2, 1 mM DTT, 0.1% Tween-20, 0.2 mg/ml BSA; 25 C; 10 min per concentration, then washed
Conditions: tags: His6-TwinStrep-SUMO cleaved; N-terminal SNAP kept (SNAP-Surface 488); label: 3' end held by stalled T7 RNA polymerase
Assign pKd to each entry below.
In simple prose, pKd is minus the logarithm base ten of a concentration in moles per litre.

For the binder target 1 MT 5'PFS UAA 3'PFS AAC (mixed) RNA 1: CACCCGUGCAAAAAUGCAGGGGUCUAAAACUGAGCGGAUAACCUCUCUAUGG RNA 2: GGGAAUGGAUCCACAUCUACGAAUUCUAACCAUAGAGAGGUUAUCCGCUCAAACAGAUCGGAAGAGCACACGU , what pKd is on record? 7.40

For the binder target 2 MT 5'PFS UCA 3'PFS CAU (mixed) RNA 1: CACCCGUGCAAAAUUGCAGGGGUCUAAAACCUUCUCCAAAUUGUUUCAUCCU RNA 2: GGGAAUGGAUCCACAUCUACGAAUUCUCAAGGAUGAAACAAUUUGGAGAAGCAUAGAUCGGAAGAGCACACGU , what pKd is on record? 8.32

For the binder target 2 MT 5'PFS CGG 3'PFS UCA (mixed) RNA 1: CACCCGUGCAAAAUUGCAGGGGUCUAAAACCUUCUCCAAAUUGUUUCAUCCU RNA 2: GGGAAUGGAUCCACAUCUACGAAUUCCGGAGGAUGAAACAAUUUGGAGAAGUCAAGAUCGGAAGAGCACACGU , what pKd is on record? 7.96

For the binder target 1 insG 3' of 18,insG 3' of 7 (mixed) RNA 1: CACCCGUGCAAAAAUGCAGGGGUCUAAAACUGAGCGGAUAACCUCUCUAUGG RNA 2: GGGAAUGGAUCCACAUCUACGAAUUCGUACCAUAGGAGAGGUUAUCGCGCUCACCGAGAUCGGAAGAGCACACGU , what pKd is on record? 7.46

For the binder target 2 MT 5'PFS UAG 3'PFS UUC (mixed) RNA 1: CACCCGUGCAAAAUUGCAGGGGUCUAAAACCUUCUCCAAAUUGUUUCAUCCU RNA 2: GGGAAUGGAUCCACAUCUACGAAUUCUAGAGGAUGAAACAAUUUGGAGAAGUUCAGAUCGGAAGAGCACACGU , what pKd is on record? 8.14

For the binder target 2 MT 5'PFS CAG 3'PFS CCA (mixed) RNA 1: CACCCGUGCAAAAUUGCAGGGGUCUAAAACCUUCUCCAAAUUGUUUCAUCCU RNA 2: GGGAAUGGAUCCACAUCUACGAAUUCCAGAGGAUGAAACAAUUUGGAGAAGCCAAGAUCGGAAGAGCACACGU , what pKd is on record? 8.00

For the binder target 2 MT 5'PFS CAC 3'PFS UCA (mixed) RNA 1: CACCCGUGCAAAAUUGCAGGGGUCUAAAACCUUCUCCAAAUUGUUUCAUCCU RNA 2: GGGAAUGGAUCCACAUCUACGAAUUCCACAGGAUGAAACAAUUUGGAGAAGUCAAGAUCGGAAGAGCACACGU , what pKd is on record? 8.39

For the binder target 1 A1G,G12C (mixed) RNA 1: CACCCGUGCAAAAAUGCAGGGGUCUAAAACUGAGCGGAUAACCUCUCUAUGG RNA 2: GGGAAUGGAUCCACAUCUACGAAUUCGUACCAUAGAGAGCUUAUCCGCUCGCCGAGAUCGGAAGAGCACACGU , what pKd is on record? 7.91

FYI, the data here is from paper PMC10786891.
